# Measurement description: Microsomal stability in rat liver microsomes
# Assay type: in vitro ADME
# Cond: Sprague-Dawley, pH 7.4; rat liver microsomes; read-out: intrinsic clearance CLint
Reported property: microsomal CLint at 3 µM (µL/min/mg)

{"Compound": "COc1cc(C(F)(F)F)ccc1C1CCN(Cc2nc3ncccc3n2C)CC1 [Compound 1]", "Reported property": "microsomal CLint at 3 µM", "Quantitative result": 17.9}
